Molecular target: human CB2 receptor (Homo sapiens)
Construct: expressed in transfected cells
Sequence (P34972 whole entry): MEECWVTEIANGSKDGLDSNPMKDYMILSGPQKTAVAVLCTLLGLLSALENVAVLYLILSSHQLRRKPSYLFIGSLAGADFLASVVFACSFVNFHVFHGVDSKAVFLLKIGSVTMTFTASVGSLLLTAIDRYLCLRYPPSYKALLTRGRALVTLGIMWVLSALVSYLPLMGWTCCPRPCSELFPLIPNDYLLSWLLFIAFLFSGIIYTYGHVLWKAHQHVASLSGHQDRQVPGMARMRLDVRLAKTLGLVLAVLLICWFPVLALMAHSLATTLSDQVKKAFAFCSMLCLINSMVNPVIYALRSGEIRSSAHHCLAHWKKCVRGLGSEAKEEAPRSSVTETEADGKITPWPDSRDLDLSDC
Test: Human CB2 receptor binding inhibition test ([3H]CP-55,940, CHO membrane fractions)
Conditions: [3H]CP-55,940, membrane fractions of CHO cells stably expressing human CB2 receptor, 25° C., 2 hours; read-out: CB2 IC50 (Inhibition of binding to human CB2 receptor)
property-label: IC50 (nM)
All answers are understood in nM, so give the number only.

Worked examples, 3 compounds total:
COCCn1c(C)c(C(C)(C)C)s/c1=N\C(=O)C(F)(F)C(F)(F)C(F)(F)F | 9.1
Cc1s/c(=N\C(=O)c2cccc(Cl)c2F)n(CC2CC2)c1C | 8.4
Cc1ccnc(C)c1C(=O)/N=c1\sc(C(C)(C)C)c(C)n1CC1CC1 | 2.8

Provide the documented IC50 with human CB2 receptor (Homo sapiens) as the system for "Cc1c(C(C)(C)C)s/c(=N\C(=O)c2cccc(N(C)C)c2)n1CC1CC1"
19.1

Provide the documented IC50 with human CB2 receptor (Homo sapiens) as the system for "COc1cc(Cl)ccc1C(=O)/N=c1\sc(C(C)(C)C)c(C)n1CC1CC1"
1

Provide the documented IC50 with human CB2 receptor (Homo sapiens) as the system for "COCCn1c(C)c(C(C)(C)C)s/c1=N\C(=O)c1cc(Br)ccc1F"
3.8

Provide the documented IC50 with human CB2 receptor (Homo sapiens) as the system for "Cc1s/c(=N\C(=O)CC2CCCC2)n(CC2CC2)c1C"
7

Provide the documented IC50 with human CB2 receptor (Homo sapiens) as the system for "Cc1cn(CC2CC2)/c(=N/C(=O)c2cccc(C(F)(F)F)c2F)s1"
3

Provide the documented IC50 with human CB2 receptor (Homo sapiens) as the system for "Cc1c(C(C)(C)C)s/c(=N\C(=O)c2cccc3cnccc23)n1CC1CC1"
2.3

Provide the documented IC50 with human CB2 receptor (Homo sapiens) as the system for "Cc1c(C(C)(C)C)s/c(=N\C(=O)c2cnnc3ccccc23)n1CC1CC1"
13

Provide the documented IC50 with human CB2 receptor (Homo sapiens) as the system for "Cc1ncccc1C(=O)/N=c1/sc(C(C)(C)C)c(C)n1CC1CC1"
12.3

Provide the documented IC50 with human CB2 receptor (Homo sapiens) as the system for "Cc1ccc(F)c(C(=O)/N=c2\sc(C(C)(C)C)c(C)n2CC2CC2)c1"
2.4

Provide the documented IC50 with human CB2 receptor (Homo sapiens) as the system for "CCn1c(C)c(C(C)(C)C)s/c1=N\C(=O)c1cnccc1C(F)(F)F"
13.8

Provide the documented IC50 with human CB2 receptor (Homo sapiens) as the system for "Cc1c(C(C)(C)C)s/c(=N\C(=O)c2ccc(F)cc2F)n1CC1CC1"
13

Provide the documented IC50 with human CB2 receptor (Homo sapiens) as the system for "Cc1c(C(C)(C)C)s/c(=N\C(=O)c2nc(Cl)ccc2Cl)n1CC1CC1"
0.5

Provide the documented IC50 with human CB2 receptor (Homo sapiens) as the system for "Cc1c(C(C)(C)C)s/c(=N\C(=O)c2cc(F)ccc2F)n1CC1CC1"
15.6

Provide the documented IC50 with human CB2 receptor (Homo sapiens) as the system for "Cc1ccc(C)c(C(=O)/N=c2\sc(C(C)(C)C)c(C)n2CC2CC2)c1"
2.6

Provide the documented IC50 with human CB2 receptor (Homo sapiens) as the system for "Cc1c(C(C)(C)C)s/c(=N\C(=O)C(C)(C)C)n1CC1CC1"
13.8
